- experimentalSystem: PCP site of the NMDA receptor (cerebellar)
- Construct: IC50(μM) Cerebellum; other: rat cerebellum membranes, [3H]-MK-801 5 nM, 10 μM glutamate, 10 μM glycine
- assayMethodText: [3H]-MK-801 binding, PCP site of NMDA receptor, rat cerebellar membranes
- conditionLabel: rat cerebellum membranes, [3H]-MK-801 5 nM, 10 μM glutamate, 10 μM glycine
- Protocol: The NMDA receptor contains several distinct binding domains that can regulate opening of the cationic channel. […] Frozen rat cortex or cerebellum, homogenized in 10 volumes of ice cold 0.32 M. sucrose is centrifuged at 1,000 g for 12 min and the supernatant stored on ice whilst the pellet was resuspended, rehomogenized and recentrifuged twice more. […] Non-specific binding was determined using MK-801 (10 μM). […]
Counter-ions that a name gives are not always drawn.
experimentalEndpoint: IC50 (µM)
One number for each entry, in µM.

Some compounds with known IC50 results, for comparison:
compound: CC12CC3CC(C1)CC(C(=N)N)(C3)C2.Cl [Example 12, hydrochloride]
IC50 (µM): 36
//
compound: CC12CC3(C)CC(C)(C1)CC(C(=N)N)(C2)C3.Cl [Example 13, hydrochloride]
IC50 (µM): 18
//
compound: Cl.N=C(N)C12CC3CC(C1)CC(c1ccc([N+](=O)[O-])cc1)(C3)C2 [Example 14, hydrochloride]
IC50 (µM): 234
//
compound: Cl.N=C(N)C(Cc1ccccc1)C12CC3CC(CC(C3)C1)C2 (centres unmarked) [Example 16, hydrochloride]
IC50 (µM): 27

Now, please, on to the next compound.
query: // returns reported IC50 for input CC12CC3CC(C)(C1)CC(CC(=N)N)(C3)C2 [Example 5, hydrochloride]
result: 56

---

- System: PCP site of the NMDA receptor (cerebellar)
- assayMethodText: [3H]-MK-801 binding, PCP site of NMDA receptor, rat cerebellar membranes
- conditionLabel: IC50 cortex / IC50 cerebellum
Structures can show the parent of a compound that is named as a salt.
I'd appreciate it if you could supply Ratio of cortical to cerebellar binding affinity values for the items below.
One number for each entry.

Below, 4 compounds whose answers are already recorded.
compound: CC12CC3(C)CC(C)(C1)CC(C(=N)N)(C2)C3.Cl
testResult: 2.4
//
compound: Cl.N=C(N)C12CC3CC(C1)CC(c1ccc([N+](=O)[O-])cc1)(C3)C2
testResult: 1.7
//
compound: CC12CC3CC(C1)CC(C(=N)N)(C3)C2.Cl
testResult: 2.7
//
compound: Cl.N=C(N)C(Cc1ccccc1)C12CC3CC(CC(C3)C1)C2 (centres unmarked)
testResult: 1.9

Proceeding to the next compound to report its Ratio of cortical to cerebellar binding affinity.
query: Provide the documented Ratio of cortical to cerebellar binding affinity with PCP site of the NMDA receptor (cerebellar) as the system for CC12CC3CC(C)(C1)CC(CC(=N)N)(C3)C2 [Example 5, hydrochloride]
result: 1.5
